All values here come from paper PMC3813752.

Target entity: human GPR55 (Homo sapiens)
Assay: β-arrestin recruitment assay (PathHunter), CHO cells expressing GPR55
Condition parameters: CHO, read-out: % inhibition of LPI (1 µM)-induced β-arrestin recruitment at GPR55
This listing pairs compounds with measured inhibition at 10 µM.

COc1ccc(C(=O)c2c(C)n(CCN3CCOCC3)c3cc(I)ccc23)cc1 [Compound 7, reference compound] :: 48%
C=CCc1ccc(O)c(-c2cc(CC=C)ccc2O)c1 [Compound 9, reference compound] :: 0%

Now look at this entry.
Ask: Tell me reported inhibition at 10 µM for Cc1c(C(=O)NN2CCCCC2)nn(-c2ccc(Cl)cc2Cl)c1-c1ccc(Cl)cc1 [Compound 5, rimonabant, reference compound] , tested with human GPR55 (Homo sapiens).
Reply: 0%

* * *

Quick reference: agonist effect on β-arrestin recruitment at GPR55 of the listed items.
Target entity: human GPR55 (Homo sapiens, UniProt Q9Y2T6)
Sequence (Q9Y2T6 whole entry): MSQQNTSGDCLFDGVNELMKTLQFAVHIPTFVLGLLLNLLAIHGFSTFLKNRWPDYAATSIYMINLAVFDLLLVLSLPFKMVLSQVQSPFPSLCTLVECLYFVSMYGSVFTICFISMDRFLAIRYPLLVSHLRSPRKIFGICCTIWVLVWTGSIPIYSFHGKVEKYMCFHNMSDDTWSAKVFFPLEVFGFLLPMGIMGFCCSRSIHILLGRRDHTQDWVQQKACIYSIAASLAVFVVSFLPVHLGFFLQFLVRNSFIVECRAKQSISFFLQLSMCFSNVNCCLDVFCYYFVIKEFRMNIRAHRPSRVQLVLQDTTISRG
Assay: β-arrestin recruitment assay (PathHunter), CHO cells expressing GPR55
Condition parameters: test compound 10 µM, related to effect of LPI 1 µM = 100%
Record the result as number plus unit.

CCCCCc1cc(O)c2c(c1)OC(C)(C)[C@@H]1CCC(C)=C[C@@H]21 [Compound 1, Δ^9-tetrahydrocannabinol, reference compound] :: 0%

Ask: # get_value(readout='agonist effect on β-arrestin recruitment at GPR55', item= `CCCCCc1ccc(O)c(-c2cc(CCC)ccc2O)c1` )
Reply: 28%

Ask: State the recorded agonist effect on β-arrestin recruitment at GPR55 for this entry: `CCCCc1ccc(O)c(-c2cc(C)ccc2O)c1`
Reply: 18%

Ask: What does the data say about its agonist effect on β-arrestin recruitment at GPR55? Entry: `CCc1ccc(O)c(-c2cc(CC)ccc2O)c1`
Reply: 23%

* * *

Target entity: human GPR55 (Homo sapiens, UniProt Q9Y2T6)
Assay: β-arrestin recruitment assay (PathHunter), CHO cells expressing GPR55
Condition parameters: test compound 10 µM, related to effect of LPI 1 µM = 100%
Respond with condition met for agonist effect on β-arrestin recruitment at GPR55 values of 9% and above, condition not met for values below.

Past entries and their recorded results:
COc1ccc(C(=O)c2c(C)n(CCN3CCOCC3)c3cc(I)ccc23)cc1 [Compound 7, reference compound] :: condition met
CCCCc1ccc(O)c(-c2cc(CCC)ccc2O)c1 [Compound 58] :: condition met
CCCCCCc1ccc(O)c(-c2ccccc2O)c1 [Compound 49] :: condition met

Here is the next item to consider.
Ask: Decide: is the reported value of agonist effect on β-arrestin recruitment at GPR55 for CCCCc1ccc(O)c(-c2ccccc2O)c1 [Compound 47] equal to or greater than 9%?
Reply: condition not met

* * *

# maps each entry to its agonist effect on β-arrestin recruitment at GPR18
Target entity: UniProt:Q14330
Condition parameters: test compound 10 µM, related to effect of Δ9-THC 10 µM = 100%
Form entry: value (%) — number only.

Study these solved cases before continuing.
CCCc1ccc(O)c(-c2cc(C(C)(C)C)ccc2O)c1 :: 0
CCCCCCc1ccc(O)c(-c2cc(CC)ccc2O)c1 :: 0
CCCc1ccc(O)c(-c2cc(C)ccc2O)c1 :: 0
CCCCCc1ccc(O)c(-c2cc(CCCCC)ccc2O)c1 :: 0

Ask: Record lookup: for UniProt:Q14330, what agonist effect on β-arrestin recruitment at GPR18 belongs to `CCCCCCCc1ccc(O)c(-c2cc(CCC)ccc2O)c1` ?
Reply: 0

Ask: Please state recorded agonist effect on β-arrestin recruitment at GPR18 (tested on UniProt:Q14330) of CCCCCc1ccc(O)c(-c2cc(CCC)ccc2OC)c1 [Compound 60a]
Reply: 22

Ask: // lookup agonist effect on β-arrestin recruitment at GPR18 | system=UniProt:Q14330 | key= CCCc1ccc(O)c(-c2cc(CCC)ccc2OC)c1 [Compound 12a, methoxytetrahydromagnolol]
Reply: 26

Ask: Short answer please: agonist effect on β-arrestin recruitment at GPR18, UniProt:Q14330, entry C=CCc1ccc(O)c(-c2cc(CC=C)ccc2O)c1 [Compound 9, reference compound]
Reply: 0

Ask: Give recorded agonist effect on β-arrestin recruitment at GPR18 with UniProt:Q14330 for the following compound: Cc1c(C(=O)NN2CCCCC2)nn(-c2ccc(Cl)cc2Cl)c1-c1ccc(Cl)cc1 [Compound 5, rimonabant, reference compound]
Reply: 0

* * *

Target entity: human GPR18 (Homo sapiens)
Sequence (Q14330 whole entry): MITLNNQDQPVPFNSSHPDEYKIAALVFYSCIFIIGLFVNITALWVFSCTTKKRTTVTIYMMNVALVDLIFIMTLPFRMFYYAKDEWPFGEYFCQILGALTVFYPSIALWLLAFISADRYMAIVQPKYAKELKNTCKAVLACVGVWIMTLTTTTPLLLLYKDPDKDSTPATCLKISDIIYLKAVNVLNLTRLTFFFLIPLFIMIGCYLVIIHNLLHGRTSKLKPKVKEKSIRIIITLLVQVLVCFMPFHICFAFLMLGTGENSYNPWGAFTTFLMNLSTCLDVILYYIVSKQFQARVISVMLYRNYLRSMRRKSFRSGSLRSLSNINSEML
Condition parameters: test compound 10 µM, related to effect of Δ9-THC 10 µM = 100%
Measurement label: agonist effect on β-arrestin recruitment at GPR18 (%)
Numeric answer only, unit % assumed.

Worked cases, answers included:
C=CCc1ccc(O)c(-c2ccc(O)c(CC=C)c2)c1 [Compound 10, honokiol, reference compound] :: 0
CCCCCc1ccc(O)c(-c2cc(CC)ccc2O)c1 :: 0
CCCCCc1ccc(O)c(-c2cc(CCCC)ccc2O)c1 :: 0
CCCCCc1ccc(O)c(-c2ccccc2O)c1 :: 0
COc1ccc(-c2oc3cc(OC)ccc3c2C(=O)c2ccc(C#N)cc2)cc1 [Compound 6, reference compound] :: 0
CCc1ccc(O)c(-c2cc(CC)ccc2O)c1 :: 6
CCCCCc1ccc(O)c(-c2cc(C)ccc2O)c1 :: 0
CCCCc1ccc(O)c(-c2cc(CCCC)ccc2O)c1 :: 0

Ask: Which value of agonist effect on β-arrestin recruitment at GPR18 has been reported for CCCc1ccc(O)c(-c2cc(CCC)ccc2O)c1 [Compound 12, tetrahydromagnolol] in the records?
Reply: 0

* * *

Target entity: human CB1 receptor (Homo sapiens, UniProt P21554)
Sequence (P21554 whole entry): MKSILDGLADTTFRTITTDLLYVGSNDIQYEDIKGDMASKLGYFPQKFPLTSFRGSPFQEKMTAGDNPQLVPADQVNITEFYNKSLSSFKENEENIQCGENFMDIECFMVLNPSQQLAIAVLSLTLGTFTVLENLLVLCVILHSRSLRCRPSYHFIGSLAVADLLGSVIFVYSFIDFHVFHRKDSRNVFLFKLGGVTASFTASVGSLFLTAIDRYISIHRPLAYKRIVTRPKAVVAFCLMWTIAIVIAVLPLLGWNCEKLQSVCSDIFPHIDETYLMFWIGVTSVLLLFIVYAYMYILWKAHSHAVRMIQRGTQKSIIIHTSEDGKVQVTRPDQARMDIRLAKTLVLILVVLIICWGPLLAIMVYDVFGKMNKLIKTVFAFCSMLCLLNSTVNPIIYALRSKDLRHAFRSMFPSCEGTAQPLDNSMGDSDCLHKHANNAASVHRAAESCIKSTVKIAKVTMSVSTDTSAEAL
Assay: cAMP accumulation assay, CHO cells expressing CB1
Assay type: cell-based
Measurement label: pEC50
Quick note: pEC50 means taking -log10 of the concentration in moles per liter.

Worked examples follow.
CCCCCc1ccc(O)c(-c2cc(CCCCC)ccc2O)c1 :: 5.34
CCCCCCc1ccc(O)c(-c2cc(CCC)ccc2O)c1 :: 6.08

Ask: Recorded pEC50 of `CCCCCc1ccc(O)c(-c2cc(CCC)ccc2O)c1` , please.
Reply: 6.01

Ask: What pEC50 value was documented for this compound, `CCCCc1ccc(O)c(-c2cc(CCCC)ccc2O)c1` ?
Reply: 5.15

* * *

Target entity: human CB2 receptor (Homo sapiens, UniProt P34972)
Sequence (P34972 whole entry): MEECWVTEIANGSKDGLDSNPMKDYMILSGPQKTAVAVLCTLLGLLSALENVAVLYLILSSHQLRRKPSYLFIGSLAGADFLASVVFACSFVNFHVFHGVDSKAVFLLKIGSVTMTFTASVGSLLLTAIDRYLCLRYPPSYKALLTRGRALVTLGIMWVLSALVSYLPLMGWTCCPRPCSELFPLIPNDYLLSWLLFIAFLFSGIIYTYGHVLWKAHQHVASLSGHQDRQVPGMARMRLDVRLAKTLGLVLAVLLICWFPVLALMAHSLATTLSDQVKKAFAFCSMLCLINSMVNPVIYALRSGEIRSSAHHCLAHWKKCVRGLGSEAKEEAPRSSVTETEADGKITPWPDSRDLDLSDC
Assay: Radioligand binding (heterologous competition) vs. [3H]CP55,940 at CB2
Condition parameters: membranes of CHO cells expressing human CB2; three independent experiments in duplicates; read-out: Ki CB2, heterologous competition vs. [3H]CP55,940
Attribute: pKi
Expect pKi as a plain number equal to -log10 of the molar concentration.

Here are 5 molecules together with their reported answers.
CCCCCc1ccc(O)c(-c2cc(CCCC)ccc2O)c1 :: 6.63
CCCCCCc1ccc(O)c(-c2ccccc2O)c1 :: 5.82
CCCCCc1ccc(O)c(-c2ccccc2O)c1 :: 5.94
CCCc1ccc(O)c(-c2cc(CC)ccc2O)c1 :: 6.07
CCc1ccc(O)c(-c2cc(CC)ccc2O)c1 :: 5.54

Ask: Consider the molecule shown here: CCCCCCc1ccc(OC)c(-c2cc(CCC)ccc2O)c1 [Compound 61b] What is its recorded pKi?
Reply: 6.55

Ask: Dear colleague, I am looking for the recorded pKi of the following molecule: `CCCCCc1ccc(O)c(-c2cc(C)ccc2O)c1`
Reply: 6.29

Ask: Could you tell me which pKi is on file for `CCCCCc1ccc(O)c(-c2cc(CC)ccc2O)c1` ?
Reply: 6.79

Ask: Which measured pKi value corresponds to `CCCCCCCCc1ccc(O)c(-c2cc(CCC)ccc2O)c1` ?
Reply: 6.02

* * *

Target entity: human CB2 receptor (Homo sapiens, UniProt P34972)
Assay: cAMP accumulation assay, CHO cells expressing CB2
Measurement label: pEC50
Please treat pEC50 as minus the base-10 logarithm of the molar concentration.

CCCCCCc1ccc(O)c(-c2cc(CCC)ccc2OC)c1 [Compound 61a] :: 7.41
CCCc1ccc(O)c(-c2cc(CCC)ccc2OC)c1 [Compound 12a, methoxytetrahydromagnolol] :: 7.11
CCCCCc1ccc(O)c(-c2cc(CCC)ccc2O)c1 [Compound 60, 5-Pentyl-5′-propylbiphenyl-2,2′-diol] :: 6.59

Ask: Which pEC50 is listed for CCCCCc1ccc(O)c(-c2cc(CCC)ccc2OC)c1 [Compound 60a] ?
Reply: 7.40

Ask: // returns reported pEC50 for input CCCCc1ccc(O)c(-c2cc(CCCC)ccc2O)c1 [Compound 43]
Reply: 6.42

Ask: Data request, read-out pEC50, for CCCCCCc1ccc(O)c(-c2cc(CCC)ccc2O)c1 [Compound 61, 5-Hexyl-5′-propylbiphenyl-2,2′-diol]
Reply: 6.80

Ask: Field request: pEC50 | item: CCCCCc1ccc(O)c(-c2cc(CCCCC)ccc2O)c1 [Compound 44]
Reply: 5.64

Ask: Given the molecule CCCCCCc1ccc(OC)c(-c2cc(CCC)ccc2O)c1 [Compound 61b] , what is its reported pEC50?
Reply: 6.23

* * *

Target entity: human GPR55 (Homo sapiens)
Assay: β-arrestin recruitment assay (PathHunter), CHO cells expressing GPR55
Condition parameters: test compound 10 µM, related to effect of LPI 1 µM = 100%
The entries below are paired with their reported agonist effect on β-arrestin recruitment at GPR55.
Give the value in % but do not write % after it.

Some solved entries appear below for comparison.
CCCCCc1ccc(O)c(-c2cc(CCC)ccc2OC)c1 [Compound 60a] :: 0
CCCc1ccc(O)c(-c2ccccc2O)c1 [Compound 46] :: 25
CCCc1ccc(O)c(-c2cc(C(C)(C)C)ccc2O)c1 [Compound 59] :: 0

Ask: Query: agonist effect on β-arrestin recruitment at GPR55; subject: CCCCCc1ccc(O)c(-c2ccccc2O)c1 [Compound 48]
Reply: 42
